# System: MCF7 breast
# ASSAY_COMMENT: NCI tumour cell line growth inhibition, 48 h; in the data active = GI50 below about 0.43 µM; inactive = the rest
Labels: 1.0 for active, 0.0 for inactive

INSERT INTO results (structure_as_smiles, cat) VALUES
  ('COc1cc2ncn(-c3cc(OCc4ccccc4C(F)(F)F)c(C(N)=O)s3)c2cc1OC', 1.0),
  ('COc1cc(C(=O)c2cnc(-c3c[nH]c4cccc(C)c34)[nH]2)cc(OC)c1OC', 1.0),
  ('[CH3][Sn]([CH3])([CH3])[S]C(=S)N1CCOCC1', 1.0),
  ('CCSC[C@@H]1C[C@](O)(c2ccccc2)[C@@H](c2ccccc2)O1', 0.0),
  ('CC(=O)c1cc2c(N)c(C(=O)Nc3cccc4ccccc34)sc2nc1C', 0.0),
  ('Cc1cc(NC(=O)NCc2ccc(N3C(N)=NC(N)=NC3(C)C)cc2)ccc1S(=O)(=O)F', 0.0),
  ('CCc1ccc2c(c1)C(=O)c1c-2n(CCCN)c(=O)c2cc(OC)c(OC)cc12', 0.0),
  ('Cc1ccc(NCCNCC(C)(C)O)c2c(=O)c3ccc(Cl)cc3sc12', 0.0);
